- SUBJECT_OF_TEST: Troponin I, cardiac muscle (Homo sapiens) + Troponin T, cardiac muscle (Homo sapiens) + Troponin C, slow skeletal and cardiac muscles (Homo sapiens) (UniProt P19429+P45379+P63316)
- MEASUREMENT_DESCRIPTION: cardiac RTF calcium sensitivity activators, confirmation, biochemical, IANBD-TnC fluorescence, triplicate (AID 504383);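 note: 0% = DMSO at 0.472 mM calcium and 100% = DMSO at 2.9 mM calcium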
- DETAILS: IANBD-labeled cardiac RTF, Ca2+ sensitivity fluorescence; at 7.2 µM; stronger effect = higher value; scaled from EC20 to saturating calcium; tested at EC20 calcium, 0.472 mM
Hit rate of the full screen: of about 2,500 compounds, about 1,200 (48%) were called active. The set was probably picked from earlier hits. The list shows a part of the results.
QUANTITY: activation (%)

compound=CCN(C(=O)CN1CCCc2cc(C)ccc21)c1c(N)n(Cc2ccccc2)c(=O)[nH]c1=O value_observed=6.97
compound="CC(OC(=O)c1c2c(nc3ccccc13)/C(=C\\c1ccc3c(c1)OCO3)CCC2)C(=O)Nc1ccc(S(N)(=O)=O)cc1 (stereo unspecified)" value_observed=3.14
compound="Cc1cc(NC(=O)CCC(=O)N(CCC(C)C)C(C(=O)NC2CCCC2)c2cccnc2)no1 (stereo unspecified)" value_observed=3.5
compound=COCCN(C(=O)CN1CCCc2ccccc21)c1c(N)n(Cc2ccccc2)c(=O)[nH]c1=O value_observed=18.8
compound=NC(=O)c1ccc(NC(=O)COC(=O)c2c3c(nc4ccccc24)/C(=C\c2ccc4c(c2)OCO4)CCC3)cc1 value_observed=11.7
compound="CCOc1ccc(C(C(=O)NC2CCCCC2)N(C(=O)Cc2cccs2)c2ccc(-n3cnnn3)c(OC)c2)cc1 (stereo unspecified)" value_observed=3.97
compound=COc1ccccc1NCC(=O)NC(=O)NC1CCCCC1 value_observed=13.1
compound=O=C(N/N=C/c1c(O)ccc2ccccc12)c1cccc(C(F)(F)F)c1 value_observed=164
compound="CCN1CC=C2C(C#N)=C(N)C(C#N)(C#N)C(c3cc(Cl)ccc3Cl)C2C1 (stereo unspecified)" value_observed=253
compound=COc1ccc(OC)c(NC(=S)Nc2ccccc2)c1 value_observed=5.57
compound=COc1cc(OC)cc(C(=O)N(Cc2ccco2)c2c(N)n(Cc3ccccc3)c(=O)[nH]c2=O)c1 value_observed=7.79
compound=O=C(N/N=C\c1c(O)ccc2ccccc12)c1cncc(Br)c1 value_observed=20
compound=Oc1ccc2ccccc2c1C=NCc1cn2ccsc2n1 value_observed=3.76
compound=Cc1sc(NC(=O)CSc2nnc(C(C)C)n2C)c(C#N)c1C value_observed=80.6
compound=COc1ccc2nc(C)cc(NCc3ccc(F)cc3)c2c1 value_observed=10.7
compound=CCn1c(=O)c(C(=O)CN2CCCc3ccccc32)c(N)n(Cc2ccccc2)c1=O value_observed=60
compound=CCCCNC(=O)COC(=O)c1c2c(nc3ccccc13)/C(=C\c1cccs1)CC2 value_observed=6.15
compound="CC(=O)NC(CCS(C)(=O)=O)C(=O)Nc1cc(C)on1 (stereo unspecified)" value_observed=15.8
compound=COc1ccc2nc(C)c3cc(C)oc3c2c1 value_observed=71.2
compound=CCOc1ccc(-n2c(SCC(=O)Nc3ccc(OC)cc3OC)nc3c(c2=O)SCC3)cc1 value_observed=13.3
compound="CCCN1CC=C2C(C#N)=C(N)C(C#N)(C#N)C(c3cccc(OC)c3OC)C2C1 (stereo unspecified)" value_observed=0.08
